# Experimental protocol: Solubility in buffers and food grade solvents (Table 14)
# Type: physicochemical
# Experimental parameters: ethanol, organic solvent or mixture

[
  {
    "Molecular string": "CCCNC(=O)C(C)(C)COc1cccc2c1C(N)=NS(=O)(=O)N2",
    "Endpoint unit": "mM",
    "solubility": 10.6
  }
]

###

# Experimental protocol: Solubility in buffers and food grade solvents (Table 14)
# Format: physicochemical
# Experimental parameters: aqueous buffer; Citric Acid Buffer, pH 4.0
# Procedure: Solubility of 3-(4-amino-2,2-dioxide-1H-benzo[c][1,2,6]thiadiazin-5-yloxy)-2′,2′-dimethyl-N-propylpropanamide Various solutions of 3-(4-amino-2,2-dioxide-1H-benzo[c][1,2,6]thiadiazin-5-yloxy)-2′,2′-dimethyl-N-propylpropanamide 3-(4-amino-2,2-dioxide-1H-benzo[c][1,2,6]thiadiazin-5-yloxy)-2′,2′-dimethyl-N-propylpropanamide were prepared as indicated below.
Property: solubility (µM)

[
  {
    "Molecular string": "CCCNC(=O)C(C)(C)COc1cccc2c1C(N)=NS(=O)(=O)N2",
    "Observed measurement": 140
  }
]
